src = PubChem BioAssay AID1159580

- assayExplanation: chemical genetic growth profiling, strain panel (AID 1159580);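 further: tested at 20 µM; growth read once vehicle control cultures reached saturation at 30 °C; lower values mean less growth of the strain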
- runParameters: S. cerevisiae deletion strains, growth OD, locus YAL026C, strain drs2
Screen size: about 5,500 compounds; about 2,000 (36%) were called active. Another 18% or so got no clear call; they are omitted. No stated cut-off is given here; in the data, active means normalized growth mostly below about 0.91 (no sharp cut-off); inconclusive means no clear call, values can overlap the other calls; inactive means mostly above about 0.92. Some of the results follow.
Hello, when you answer, please use one of the following outcomes: T for active, F for inactive

Input: Assay result, entry COc1cccc2c1CCC1=CC(=O)CC[C@@]12C — outcome?
Output: F

Input: Check the results log: what was the call for O=C(CCCN1CCC2(CC1)C(=O)NCN2c1ccccc1)c1ccc(F)cc1 ?
Output: F

Input: Dear colleague, could you share the recorded outcome for CC1(C)S[C@@H]2[C@H](NC(=O)C(C(=O)O)c3ccccc3)C(=O)N2[C@H]1C(=O)O (stereo partly specified) when you have a moment?
Output: F

Input: Look up the recorded call for COC(=O)[C@H]1[C@H]2C[C@H]3c4[nH]c5cc(OC)ccc5c4CCN3C[C@H]2C[C@@H](OC(=O)c2cc(OC)c(OC)c(OC)c2)[C@@H]1OC in this test.
Output: F

Input: Please share the test call associated with CC1(C)S[C@@H]2[C@H](NC(=O)[C@@H](N)c3ccc(O)cc3)C(=O)N2[C@H]1C(=O)O .
Output: F

Input: # outcome recorded in this test, key = CCCCC(=O)O[C@]1(C(=O)CO)[C@@H](C)CC2C3CCC4=CC(=O)C=C[C@]4(C)[C@@]3(F)C(O)C[C@@]21C (stereo partly specified)
Output: F

Input: Answer briefly: the call reported for COc1ccc(-c2cc(=O)c3c(OC)c(OC)c(OC)c(OC)c3o2)cc1OC in this assay.
Output: F

Input: For CCn1nc(C(=O)O)c(=O)c2cc3c(cc21)OCO3 , which call appears in the assay record?
Output: F

Input: Call for entry C[N+]1(C)C[C@H](O)[C@H](C(=O)[O-])C1 :
Output: F

Input: Each compound tested received a call. Report the one for CC(=O)N1CCN(c2ccc(OCC3CO[C@](Cn4ccnc4)(c4ccc(Cl)cc4Cl)O3)cc2)CC1 (stereo partly specified) .
Output: T

Input: Outcome logged for NC[C@H]1O[C@H](O[C@H]2[C@H](O)[C@@H](O[C@H]3O[C@H](CO)[C@@H](O)[C@H](N)[C@H]3O)[C@H](N)C[C@@H]2N)[C@H](N)[C@@H](O)[C@@H]1O in this assay:
Output: F

Input: Dear all, I need the recorded test outcome for C[C@H]1O[C@H](O[C@H]2[C@H](O)[C@@H](O)[C@@H](O[C@H]3[C@H](O)[C@@H](O)C(O)O[C@@H]3CO)O[C@@H]2CO)[C@H](O)[C@@H](O)[C@@H]1N[C@H]1C=C(CO)[C@@H](O)[C@H](O)[C@H]1O (stereo partly specified) , thank you.
Output: F

Input: Which outcome was entered for the compound O=C(O)C1=CC(=C(c2ccc(O)c(C(=O)O)c2)c2ccc(O)c(C(=O)O)c2)C=CC1=O in this test?
Output: F

Input: Any idea what this test logged for CN[C@H]1CC[C@@H](c2ccc(Cl)c(Cl)c2)c2ccccc21 ?
Output: T

Input: Which outcome was entered for the compound C/C=C/CC(C)C(O)C1C(=O)NC(CC)C(=O)N(C)CC(=O)N(C)C(CC(C)C)C(=O)NC(C(C)C)C(=O)N(C)C(CC(C)C)C(=O)NC(C)C(=O)NC(C)C(=O)N(C)C(CC(C)C)C(=O)N(C)C(CC(C)C)C(=O)N(C)C(C(C)C)C(=O)N1C (stereo unspecified) in this test?
Output: F

Input: Fill in: this test's call for C[C@@H](CO)NC(=O)C1C=C2c3cccc4[nH]cc(c34)C[C@H]2N(C)C1 (stereo partly specified) is ___
Output: F

Input: Please share the test call associated with Nc1ccc(S(=O)(=O)Nc2ncccn2)cc1 .
Output: F

Input: Assay result, entry Cc1cc(N)c2ccccc2[n+]1CCCCCCCCCC[n+]1c(C)cc(N)c2ccccc21 — outcome?
Output: T

Input: Which outcome did this test record for the compound CO[C@H]1[C@@H](O)[C@@H](C)O[C@H](O[C@H]2CCC3(C)C4CCC5(C)[C@@H](C6=CC(=O)OC6)CC[C@]5(O)[C@@H]4CC[C@]3(O)C2)[C@@H]1O (stereo partly specified) ?
Output: F

Input: Please indicate how the test categorized CCC(=O)O[C@]1(C(=O)CCl)[C@@H](C)CC2C3CCC4=CC(=O)C=C[C@]4(C)[C@@]3(F)[C@@H](O)C[C@@]21C (stereo partly specified) .
Output: F

Input: Which result was noted for this compound in the test: COc1ccc(-c2cc(=O)c3c(O)cc(O)cc3o2)cc1
Output: F

Input: Which outcome did this test record for the compound CC1=CC(=O)C(C(C)C)=CC1=O ?
Output: T

Input: Per the assay record, what outcome was assigned to COc1ccc(-c2cc(=O)c3c(O)c(OC)c(OC)c(OC)c3o2)cc1OC ?
Output: F

Input: Identify the outcome logged in this assay for the compound shown: COc1ccc(-c2cc(=O)c3c(O)c(OC)c(O[C@H]4O[C@H](CO[C@@H]5O[C@@H](C)[C@H](O)[C@@H](O)[C@H]5O)[C@@H](O)[C@H](O)[C@H]4O)cc3o2)cc1
Output: F

Input: Record request — test call for NCCCC(O)(P(=O)(O)O)P(=O)(O)O
Output: F

Input: What did the test return for NC(=O)c1cc([N+](=O)[O-])cc([N+](=O)[O-])c1 ?
Output: F

Input: Recorded call for O=C(O)CCc1nc(-c2ccccc2)c(-c2ccccc2)o1 ?
Output: F

Input: Please indicate how the test categorized CC1(C)[C@@H]2CC[C@@]1(C)C(=O)C2 .
Output: F

Input: For this compound, state the assay outcome: CC(C)Nc1nc(Cl)nc(NC(C)C)n1
Output: F

Input: How was Cc1ccccc1N1C(=O)c2cc(S(N)(=O)=O)c(Cl)cc2NC1C (stereo unspecified) classified in this test?
Output: F

Input: Could you kindly confirm the outcome this assay logged for NCCCN ?
Output: F

Input: Entry COc1nc(NC(C)C)nc(NC(C)C)n1 : call = ?
Output: F

Input: // param item: Oc1ccc2c3c1OC1[C@@H](O)CC[C@@]4(O)[C@@H](C2)N(CC2CCC2)CC[C@]314 (stereo partly specified) ; yields the recorded call
Output: F

Input: What outcome does the record of this test show for CCC(=O)OCC(=O)C1(OC(=O)CC)C(C)CC2C3C(Cl)CC4=CC(=O)C=CC4(C)C3C(O)CC21C (stereo unspecified) ?
Output: F

Input: Hi, sorry to bother you, what did the test record for COc1cc(-c2cc(=O)c3c(O)c(OC)c(OC)c(OC)c3o2)cc(OC)c1OC ?
Output: F

Input: Recorded test outcome, item NS(=O)(=O)c1cc2c(cc1C(F)(F)F)NC(Cc1ccccc1)NS2(=O)=O (stereo unspecified)
Output: F
